test system: Plasma; test: Fraction unbound in human plasma by at […]; assay type: ADME, cell-free
# strict inequality: Fu < 2% yields met, everything else yields not met

SMILES RECORD: O=C(Nc1cccc(OC(F)(F)F)c1)c1ccccn1
LABEL CLASS: met
//
SMILES RECORD: O=C(Nc1cccc(C(F)(F)F)c1)c1ccccn1
LABEL CLASS: met
//
SMILES RECORD: COc1cc(NC(=O)c2ccccn2)ccc1F
LABEL CLASS: not met
//
SMILES RECORD: O=C(Nc1cccc(OC(F)F)c1)c1ccccn1
LABEL CLASS: not met
//
SMILES RECORD: COc1cc(NC(=O)c2ccccn2)ccc1Cl
LABEL CLASS: not met

---

molecular target: Metabotropic glutamate receptor 4 (Homo sapiens, UniProt Q14833); test: Activity at human mGluR4 receptor expressed in CHO cells assessed as effect on calcium mobilization relative to glutamate; assay type: functional, cell-based
Sequence (Q14833 whole entry): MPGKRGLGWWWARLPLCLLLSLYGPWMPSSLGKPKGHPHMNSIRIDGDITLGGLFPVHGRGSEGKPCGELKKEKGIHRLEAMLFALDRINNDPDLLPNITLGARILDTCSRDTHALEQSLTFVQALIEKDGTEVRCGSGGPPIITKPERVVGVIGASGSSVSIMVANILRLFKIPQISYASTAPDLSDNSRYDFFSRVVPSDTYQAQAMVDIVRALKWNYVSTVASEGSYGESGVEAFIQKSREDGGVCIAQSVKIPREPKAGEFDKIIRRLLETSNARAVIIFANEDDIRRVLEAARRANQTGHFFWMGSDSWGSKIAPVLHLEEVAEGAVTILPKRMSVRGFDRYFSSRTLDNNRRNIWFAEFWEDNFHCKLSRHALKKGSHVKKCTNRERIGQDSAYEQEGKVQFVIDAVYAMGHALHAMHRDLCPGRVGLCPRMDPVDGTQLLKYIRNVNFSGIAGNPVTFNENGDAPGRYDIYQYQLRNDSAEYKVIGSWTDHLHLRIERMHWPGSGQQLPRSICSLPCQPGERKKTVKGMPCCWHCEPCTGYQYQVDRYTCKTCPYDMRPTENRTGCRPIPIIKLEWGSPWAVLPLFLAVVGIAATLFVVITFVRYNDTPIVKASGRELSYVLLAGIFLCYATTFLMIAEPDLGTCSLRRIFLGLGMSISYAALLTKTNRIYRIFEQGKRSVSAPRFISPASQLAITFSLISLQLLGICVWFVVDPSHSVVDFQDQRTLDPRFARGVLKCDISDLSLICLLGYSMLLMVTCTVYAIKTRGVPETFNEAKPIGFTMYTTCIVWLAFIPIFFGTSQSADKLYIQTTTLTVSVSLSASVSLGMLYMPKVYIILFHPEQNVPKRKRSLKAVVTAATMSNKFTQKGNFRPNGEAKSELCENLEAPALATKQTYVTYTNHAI
Each entry below lists one item and its recorded Emax value.

SMILES RECORD: O=C(Nc1cccc(OC(F)(F)F)c1)c1ccccn1
UNIT TAG: %
Emax: 132
--
SMILES RECORD: COc1cc(NC(=O)c2ccccn2)ccc1C
UNIT TAG: %
Emax: 178
--
SMILES RECORD: O=C(Nc1cccc(OC(F)F)c1)c1ccccn1
UNIT TAG: %
Emax: 235
--
SMILES RECORD: COc1nc(NC(=O)c2ccccn2)ccc1Cl
UNIT TAG: %
Emax: 95
--
SMILES RECORD: COc1ccc(NC(=O)c2ccccn2)cc1OC
UNIT TAG: %
Emax: 164
--
SMILES RECORD: O=C(Nc1ccc(Cl)c(Cl)c1)c1ccco1
UNIT TAG: %
Emax: 135
--
SMILES RECORD: O=C(Nc1ccc2c(c1)OCO2)c1ccccn1
UNIT TAG: %
Emax: 90
--
SMILES RECORD: O=C(Nc1ccc(Cl)c(C(F)(F)F)c1)c1ccccn1
UNIT TAG: %
Emax: 47
--
SMILES RECORD: O=C(Nc1cccc(Cl)c1)c1ccccn1
UNIT TAG: %
Emax: 227
--
SMILES RECORD: O=C(Nc1cccc(C(F)(F)F)c1)c1ccccn1
UNIT TAG: %
Emax: 150
--
SMILES RECORD: COc1cc(NC(=O)c2ccccn2)ccc1Cl
UNIT TAG: %
Emax: 182
--
SMILES RECORD: O=C(Nc1ccc(Cl)c(Cl)c1)c1ccc(Br)o1
UNIT TAG: %
Emax: 62
--
SMILES RECORD: O=C(Nc1ccc(Cl)c(Cl)c1)c1ccncn1
UNIT TAG: %
Emax: 83
--
SMILES RECORD: O=C(Nc1ccccc1)[C@]12C[C@H]1/C(=N\O)c1ccccc1O2
UNIT TAG: %
Emax: 251
--
SMILES RECORD: O=C(Nc1ccc(F)c(C(F)(F)F)c1)c1ccccn1
UNIT TAG: %
Emax: 54
--
SMILES RECORD: COc1cc(NC(=O)c2ccccn2)ccc1F
UNIT TAG: %
Emax: 207
--
SMILES RECORD: COc1ccc(NC(=O)c2ccccn2)cc1Cl
UNIT TAG: %
Emax: 161
--
SMILES RECORD: O=C(Nc1ccc(Cl)c(Cl)c1)c1ccccn1
UNIT TAG: %
Emax: 80

---

assay: Metabolic stability in rat liver microsomes after 1 hr; type: ADME, Microsome; details: read-out: Stability
READOUT: remaining at 1 h (%)

SMILES RECORD: COc1cc(NC(=O)c2ccccn2)ccc1F
RECORDED VALUE: 6.3
//
SMILES RECORD: O=C(Nc1cccc(C(F)(F)F)c1)c1ccccn1
RECORDED VALUE: 19
//
SMILES RECORD: COc1cc(NC(=O)c2ccccn2)ccc1Cl
RECORDED VALUE: 1.8
//
SMILES RECORD: O=C(Nc1cccc(OC(F)F)c1)c1ccccn1
RECORDED VALUE: 1.4
//
SMILES RECORD: O=C(Nc1cccc(OC(F)(F)F)c1)c1ccccn1
RECORDED VALUE: 20

---

biological target: Metabotropic glutamate receptor 4 (Rattus norvegicus); experiment: Activity at rat mGluR4 receptor expressed in HEK293 cells assessed as effect on thallium flux relative to glutamate; type: cell-based
# strict inequality: Emax < 90% yields Yes, everything else yields No

SMILES RECORD: O=C(Nc1cccc(C(F)(F)F)c1)c1ccccn1
LABEL CLASS: Yes
--
SMILES RECORD: COc1cc(NC(=O)c2ccccn2)ccc1F
LABEL CLASS: No
--
SMILES RECORD: O=C(Nc1ccc(Cl)c(C(F)(F)F)c1)c1ccccn1
LABEL CLASS: Yes
--
SMILES RECORD: COc1ccc(NC(=O)c2ccccn2)cc1Cl
LABEL CLASS: No
--
SMILES RECORD: COc1cc(NC(=O)c2ccccn2)ccc1C
LABEL CLASS: No
--
SMILES RECORD: O=C(Nc1ccc2c(c1)OCO2)c1ccccn1
LABEL CLASS: Yes
--
SMILES RECORD: O=C(Nc1cccc(Cl)c1)c1ccccn1
LABEL CLASS: No
--
SMILES RECORD: COc1ccc(NC(=O)c2ccccn2)cc1OC
LABEL CLASS: No
--
SMILES RECORD: O=C(Nc1ccc(F)c(C(F)(F)F)c1)c1ccccn1
LABEL CLASS: Yes
--
SMILES RECORD: O=C(Nc1cccc(OC(F)F)c1)c1ccccn1
LABEL CLASS: No
--
SMILES RECORD: O=C(Nc1cccc(OC(F)(F)F)c1)c1ccccn1
LABEL CLASS: Yes
--
SMILES RECORD: COc1cc(NC(=O)c2ccccn2)ccc1Cl
LABEL CLASS: No

---

system: Plasma; assay: Fraction unbound in rat plasma by at […]; format: ADME, cell-free
Each entry below lists one item and its recorded Fu value.

SMILES RECORD: COc1cc(NC(=O)c2ccccn2)ccc1Cl
EXPERIMENTAL SYSTEM: Plasma
Fu (%): 2.4

SMILES RECORD: COc1cc(NC(=O)c2ccccn2)ccc1F
EXPERIMENTAL SYSTEM: Plasma
Fu (%): 6.5

SMILES RECORD: O=C(Nc1cccc(C(F)(F)F)c1)c1ccccn1
EXPERIMENTAL SYSTEM: Plasma
Fu (%): 2.9

SMILES RECORD: O=C(Nc1cccc(OC(F)(F)F)c1)c1ccccn1
EXPERIMENTAL SYSTEM: Plasma
Fu (%): 1.6

SMILES RECORD: O=C(Nc1cccc(OC(F)F)c1)c1ccccn1
EXPERIMENTAL SYSTEM: Plasma
Fu (%): 5.8

---

biological target: Metabotropic glutamate receptor 4 (Homo sapiens, UniProt Q14833); assay: Activity at human mGluR4 receptor expressed in CHO cells assessed as effect on calcium mobilization; assay type: functional, cell-based
pEC50: −log10 of the molar value.
Each entry below lists one item and its recorded pEC50 value.
READOUT: pEC50

SMILES RECORD: O=C(Nc1ccc(Cl)c(Cl)c1)c1cnccn1
RELATION OPERATOR: <
RECORDED VALUE: 5.00

SMILES RECORD: COc1cc(NC(=O)c2ccccn2)ccc1F
RELATION OPERATOR: =
RECORDED VALUE: 6.11

SMILES RECORD: COc1ccc(NC(=O)c2ccccn2)cc1Cl
RELATION OPERATOR: =
RECORDED VALUE: 5.96

SMILES RECORD: Cn1cccc1C(=O)Nc1ccc(Cl)c(Cl)c1
RELATION OPERATOR: <
RECORDED VALUE: 5.00

SMILES RECORD: N#Cc1ccc(NC(=O)c2ccccn2)cc1C(F)(F)F
RELATION OPERATOR: <
RECORDED VALUE: 5.00

SMILES RECORD: O=C(Nc1ccc(Cl)c(Cl)c1)c1ccncn1
RELATION OPERATOR: =
RECORDED VALUE: 5.55

SMILES RECORD: O=C(Nc1ccc(Cl)c(Cl)c1)c1ccccc1
RELATION OPERATOR: <
RECORDED VALUE: 5.00

SMILES RECORD: COc1ccc(NC(=O)c2ccccn2)cc1OC
RELATION OPERATOR: <
RECORDED VALUE: 5.30

SMILES RECORD: COc1nc(NC(=O)c2ccccn2)ccc1Cl
RELATION OPERATOR: <
RECORDED VALUE: 5.30

SMILES RECORD: O=C(Nc1cccc(Cl)c1)c1ccccn1
RELATION OPERATOR: =
RECORDED VALUE: 5.96

SMILES RECORD: O=C(Nc1ccc(F)c(C(F)(F)F)c1)c1ccccn1
RELATION OPERATOR: =
RECORDED VALUE: 5.82

SMILES RECORD: O=C(Nc1ccc(Cl)c(Cl)c1)c1ccc(Br)o1
RELATION OPERATOR: =
RECORDED VALUE: 5.39

SMILES RECORD: O=C(Nc1ccc(Cl)c(Cl)c1)C1CCCCC1
RELATION OPERATOR: <
RECORDED VALUE: 5.00
